Below, each entry is listed with its recorded (C) hLTBP3, Matrix-associated proTGFβ1 KD.
- study.target: T1, hLTBP3-proTGFβ1 (Homo sapiens, UniProt P01137)
- T1 construct: made in house; host or cells: Expi293F cells, transient co-transfection
- T1 sequence (P01137 30-390): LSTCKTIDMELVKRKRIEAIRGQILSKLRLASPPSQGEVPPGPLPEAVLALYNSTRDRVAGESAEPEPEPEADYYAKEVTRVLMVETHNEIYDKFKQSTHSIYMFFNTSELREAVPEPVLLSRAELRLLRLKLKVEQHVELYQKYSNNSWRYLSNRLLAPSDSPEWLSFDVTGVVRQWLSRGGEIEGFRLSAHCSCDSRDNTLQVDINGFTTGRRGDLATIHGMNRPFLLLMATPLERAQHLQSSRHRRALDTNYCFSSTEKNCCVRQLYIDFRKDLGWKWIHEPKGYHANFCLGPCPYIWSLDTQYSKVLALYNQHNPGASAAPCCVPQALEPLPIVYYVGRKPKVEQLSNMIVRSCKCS
- T1 sequence (Q9NS15 866-1039 partner limits assumed): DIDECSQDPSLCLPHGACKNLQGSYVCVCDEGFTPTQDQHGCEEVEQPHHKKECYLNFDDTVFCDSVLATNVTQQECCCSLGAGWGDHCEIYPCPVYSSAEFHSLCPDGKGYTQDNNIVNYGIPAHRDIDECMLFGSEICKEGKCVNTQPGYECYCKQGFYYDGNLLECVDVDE
- assay.notes: MSD-SET solution equilibrium titration binding
- measurement.context: MSD-SET at equilibrium, hIgG4, human complex; in M
Format: numeric value only, no unit, no commentary.

molecule	reported.result
Ab31: monoclonal antibody; VH SEQ ID NO: 139, VL SEQ ID NO: 15 (antibody, V domains shown) VH: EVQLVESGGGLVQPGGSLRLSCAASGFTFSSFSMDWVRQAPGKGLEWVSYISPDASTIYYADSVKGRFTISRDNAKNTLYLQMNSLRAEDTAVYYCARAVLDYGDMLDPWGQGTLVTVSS VL: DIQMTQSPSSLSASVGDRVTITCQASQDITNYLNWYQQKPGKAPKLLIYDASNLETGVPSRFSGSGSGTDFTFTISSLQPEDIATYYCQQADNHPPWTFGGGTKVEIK	1.40E−11
Ab33: monoclonal antibody; VH SEQ ID NO: 141, VL SEQ ID NO: 15 (antibody, V domains shown) VH: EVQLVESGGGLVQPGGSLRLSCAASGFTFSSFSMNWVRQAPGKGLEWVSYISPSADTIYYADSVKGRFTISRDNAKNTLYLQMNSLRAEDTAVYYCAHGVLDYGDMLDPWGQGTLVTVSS VL: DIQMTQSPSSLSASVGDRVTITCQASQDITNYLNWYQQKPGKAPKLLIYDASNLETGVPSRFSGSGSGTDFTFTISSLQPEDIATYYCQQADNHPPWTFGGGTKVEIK	7.00E−12
Ab20: monoclonal antibody; VH SEQ ID NO: 251, VL SEQ ID NO: 241 (antibody, V domains shown) VH: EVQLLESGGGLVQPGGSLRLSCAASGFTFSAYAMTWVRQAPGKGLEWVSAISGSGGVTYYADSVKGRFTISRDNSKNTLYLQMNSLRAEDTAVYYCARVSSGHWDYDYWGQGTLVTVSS VL: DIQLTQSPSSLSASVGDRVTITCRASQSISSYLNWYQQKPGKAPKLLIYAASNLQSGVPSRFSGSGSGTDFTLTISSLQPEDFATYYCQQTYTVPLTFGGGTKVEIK	1.80E−10
Ab24: monoclonal antibody; VH SEQ ID NO: 132, VL SEQ ID NO: 15 (antibody, V domains shown) VH: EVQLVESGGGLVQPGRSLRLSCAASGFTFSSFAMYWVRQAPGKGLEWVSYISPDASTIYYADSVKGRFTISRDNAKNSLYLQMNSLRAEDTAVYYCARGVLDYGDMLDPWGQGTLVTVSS VL: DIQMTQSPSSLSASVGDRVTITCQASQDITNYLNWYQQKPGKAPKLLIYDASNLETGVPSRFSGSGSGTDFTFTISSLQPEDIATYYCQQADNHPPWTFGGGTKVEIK	2.10E−11
Ab29: monoclonal antibody; VH SEQ ID NO: 137, VL SEQ ID NO: 15 (antibody, V domains shown) VH: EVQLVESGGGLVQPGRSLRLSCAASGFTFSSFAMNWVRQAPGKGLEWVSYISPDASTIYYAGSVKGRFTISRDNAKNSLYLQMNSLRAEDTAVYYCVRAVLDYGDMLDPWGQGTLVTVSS VL: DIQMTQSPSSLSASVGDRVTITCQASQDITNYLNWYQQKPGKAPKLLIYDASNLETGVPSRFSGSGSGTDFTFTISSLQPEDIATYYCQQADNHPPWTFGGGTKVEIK	1.10E−11
Ab22: monoclonal antibody; VH SEQ ID NO: 130, VL SEQ ID NO: 15 (antibody, V domains shown) VH: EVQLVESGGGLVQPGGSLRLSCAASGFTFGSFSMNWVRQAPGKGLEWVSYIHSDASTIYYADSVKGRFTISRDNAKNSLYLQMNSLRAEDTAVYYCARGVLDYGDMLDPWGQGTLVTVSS VL: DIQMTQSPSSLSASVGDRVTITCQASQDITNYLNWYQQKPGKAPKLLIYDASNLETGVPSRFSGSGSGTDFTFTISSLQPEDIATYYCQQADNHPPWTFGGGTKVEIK	3.30E−11

Next molecule, please.
Look up (C) hLTBP3, Matrix-associated proTGFβ1 KD: Ab12: monoclonal antibody; VH SEQ ID NO: 237, VL SEQ ID NO: 241 (antibody, V domains shown) VH: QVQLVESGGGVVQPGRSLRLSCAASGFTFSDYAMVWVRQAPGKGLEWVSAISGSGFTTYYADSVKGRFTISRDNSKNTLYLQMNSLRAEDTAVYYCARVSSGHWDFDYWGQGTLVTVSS VL: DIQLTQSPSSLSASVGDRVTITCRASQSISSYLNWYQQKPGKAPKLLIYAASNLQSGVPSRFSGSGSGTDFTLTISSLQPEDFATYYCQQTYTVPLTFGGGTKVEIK
6.60E−10
